- Test system: myeloma cells lines
- procedure details: MTT viability assay, myeloma cell lines
- Format: cell-based
quantity: IC50

Name the recorded IC50 for `CN(C)c1ccc(/C=C2\Oc3cc(O)ccc3C2=O)cc1` . 7 to 9 µM
